// Ka lookup, one value per entry
Target: T1, biotinylated native human ApoC3 (human, UniProt P02656 21-99, biotinylated (site not stated))
T1 construct: also called biotinylated human ApoC3
T1 sequence (P02656 21-99): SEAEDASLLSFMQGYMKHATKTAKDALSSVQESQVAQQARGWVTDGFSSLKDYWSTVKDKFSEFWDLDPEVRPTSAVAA
Test: SPR, IgG1 over biotinylated ApoC3 on SA chip, pH 5.5
Give a bare numeral; the unit M⁻¹ is implied.

Worked set:
mAb14 (antibody, IgG1, V domains shown, Produced as full length IgG1 (kappa) in ExpiCHO-S cells; CDR graft into the closest human germline frameworks; also called humanized anti-ApoC3 antibody mAb14; variant 14) VH: QLLESGGGLVQPGGSLRLSCAASGFTFGTYSMRWVRQVPGKGLEWVSSIHTEGGGTAYRDSVKGRFTISRDNSKNTLYLQMNSLRAEDTAVYYCVIAGYSDWGQGTLVTVSS VL: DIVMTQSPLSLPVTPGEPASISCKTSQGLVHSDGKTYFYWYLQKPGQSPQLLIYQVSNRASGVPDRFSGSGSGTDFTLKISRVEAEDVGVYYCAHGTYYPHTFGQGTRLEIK | 4.7e+07
mAb1 (antibody, IgG1, V domains shown, Produced as full length IgG1 (kappa) in ExpiCHO-S cells; also called humanized anti-ApoC3 antibody mAb1) VH: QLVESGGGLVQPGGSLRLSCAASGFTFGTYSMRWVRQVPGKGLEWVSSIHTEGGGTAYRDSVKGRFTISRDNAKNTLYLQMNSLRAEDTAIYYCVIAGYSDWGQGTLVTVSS VL: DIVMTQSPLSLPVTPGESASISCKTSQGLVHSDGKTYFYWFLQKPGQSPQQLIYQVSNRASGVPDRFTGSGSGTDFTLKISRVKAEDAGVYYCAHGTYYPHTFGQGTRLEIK | 4.23e+09
mAb16 (antibody, IgG1, V domains shown, Produced as full length IgG1 (kappa) in ExpiCHO-S cells; also called humanized anti-ApoC3 antibody mAb16) VH: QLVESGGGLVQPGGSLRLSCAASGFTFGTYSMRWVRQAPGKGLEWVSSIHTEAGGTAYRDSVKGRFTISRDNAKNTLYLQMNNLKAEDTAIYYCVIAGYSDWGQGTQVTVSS VL: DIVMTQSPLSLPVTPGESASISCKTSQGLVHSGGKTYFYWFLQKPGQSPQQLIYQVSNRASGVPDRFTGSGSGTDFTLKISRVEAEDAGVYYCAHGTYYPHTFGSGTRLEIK | 1.34e+08
mAb19 (antibody, IgG1, V domains shown, Produced as full length IgG1 (kappa) in ExpiCHO-S cells; also called humanized anti-ApoC3 antibody mAb19) VH: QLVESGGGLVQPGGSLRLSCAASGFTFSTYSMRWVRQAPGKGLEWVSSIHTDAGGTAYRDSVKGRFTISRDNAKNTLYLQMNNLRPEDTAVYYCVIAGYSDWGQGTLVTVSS VL: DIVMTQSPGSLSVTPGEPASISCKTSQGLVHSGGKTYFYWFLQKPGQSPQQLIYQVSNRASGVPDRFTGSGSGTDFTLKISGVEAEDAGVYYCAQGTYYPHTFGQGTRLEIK | 2.4e+09

What value of Ka has been recorded for this entry: mAb20 (antibody, IgG1, V domains shown, Produced as full length IgG1 (kappa) in ExpiCHO-S cells; also called humanized anti-ApoC3 antibody mAb20) VH: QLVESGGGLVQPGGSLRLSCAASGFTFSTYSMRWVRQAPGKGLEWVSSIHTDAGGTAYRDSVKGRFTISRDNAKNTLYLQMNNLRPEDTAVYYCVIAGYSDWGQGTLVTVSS VL: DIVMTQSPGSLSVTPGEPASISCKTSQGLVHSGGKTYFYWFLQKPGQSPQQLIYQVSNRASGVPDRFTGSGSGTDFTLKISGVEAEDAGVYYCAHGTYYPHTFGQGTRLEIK
1.06e+08

Another binder: mAb7 (antibody, V domains shown, Produced as full length IgG1 (kappa) in ExpiCHO-S cells; also called humanized anti-ApoC3 antibody mAb7) VH: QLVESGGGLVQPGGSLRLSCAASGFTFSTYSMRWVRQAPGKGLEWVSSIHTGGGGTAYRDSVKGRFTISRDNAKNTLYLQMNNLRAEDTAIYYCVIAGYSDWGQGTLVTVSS VL: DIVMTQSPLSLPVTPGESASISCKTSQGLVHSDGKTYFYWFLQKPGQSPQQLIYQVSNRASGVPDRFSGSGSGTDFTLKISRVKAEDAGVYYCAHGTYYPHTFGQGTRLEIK
2.05e+08

Another binder: mAb3 (antibody, IgG1, V domains shown, Produced as full length IgG1 (kappa) in ExpiCHO-S cells; also called humanized anti-ApoC3 antibody mAb3) VH: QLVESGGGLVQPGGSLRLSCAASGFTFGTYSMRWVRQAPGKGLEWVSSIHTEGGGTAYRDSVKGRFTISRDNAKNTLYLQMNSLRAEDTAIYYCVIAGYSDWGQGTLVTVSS VL: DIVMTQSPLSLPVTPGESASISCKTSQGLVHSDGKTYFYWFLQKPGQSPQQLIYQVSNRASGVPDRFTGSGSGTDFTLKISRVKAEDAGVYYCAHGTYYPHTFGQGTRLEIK
2.85e+09

Another binder: mAb12 (antibody, IgG1, V domains shown, Produced as full length IgG1 (kappa) in ExpiCHO-S cells; also called humanized anti-ApoC3 antibody mAb12) VH: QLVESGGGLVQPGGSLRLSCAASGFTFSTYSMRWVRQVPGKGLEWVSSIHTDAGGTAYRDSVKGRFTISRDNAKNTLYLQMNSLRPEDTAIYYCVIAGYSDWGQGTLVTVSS VL: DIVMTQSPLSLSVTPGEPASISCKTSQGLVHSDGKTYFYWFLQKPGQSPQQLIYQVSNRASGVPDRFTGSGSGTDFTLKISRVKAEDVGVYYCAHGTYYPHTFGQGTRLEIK
7.18e+09

Another binder: 5E5VH12_VLWT human IgG1 (antibody, V domains shown) VH: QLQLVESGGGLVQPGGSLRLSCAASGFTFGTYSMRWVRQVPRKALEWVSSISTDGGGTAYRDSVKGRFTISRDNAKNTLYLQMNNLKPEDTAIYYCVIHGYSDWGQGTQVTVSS VL: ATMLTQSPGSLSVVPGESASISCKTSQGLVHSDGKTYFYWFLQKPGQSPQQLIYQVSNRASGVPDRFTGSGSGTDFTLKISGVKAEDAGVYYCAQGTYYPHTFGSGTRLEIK
2.12e+09

Another binder: mAb17 (antibody, IgG1, V domains shown, Produced as full length IgG1 (kappa) in ExpiCHO-S cells; also called humanized anti-ApoC3 antibody mAb17) VH: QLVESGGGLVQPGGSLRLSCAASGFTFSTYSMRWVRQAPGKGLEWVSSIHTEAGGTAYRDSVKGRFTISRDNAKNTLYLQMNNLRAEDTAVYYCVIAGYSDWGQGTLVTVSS VL: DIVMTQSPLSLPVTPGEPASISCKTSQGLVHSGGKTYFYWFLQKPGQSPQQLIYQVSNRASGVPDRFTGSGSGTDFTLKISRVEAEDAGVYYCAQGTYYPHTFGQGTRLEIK
2.92e+09
